Molecular target: human FAK (Homo sapiens)
Construct: The complete cDNA of human FAK; made in house; host or cells: baculovirus expression system (vector pFastBac HTc)
Sequence (Q05397 whole entry): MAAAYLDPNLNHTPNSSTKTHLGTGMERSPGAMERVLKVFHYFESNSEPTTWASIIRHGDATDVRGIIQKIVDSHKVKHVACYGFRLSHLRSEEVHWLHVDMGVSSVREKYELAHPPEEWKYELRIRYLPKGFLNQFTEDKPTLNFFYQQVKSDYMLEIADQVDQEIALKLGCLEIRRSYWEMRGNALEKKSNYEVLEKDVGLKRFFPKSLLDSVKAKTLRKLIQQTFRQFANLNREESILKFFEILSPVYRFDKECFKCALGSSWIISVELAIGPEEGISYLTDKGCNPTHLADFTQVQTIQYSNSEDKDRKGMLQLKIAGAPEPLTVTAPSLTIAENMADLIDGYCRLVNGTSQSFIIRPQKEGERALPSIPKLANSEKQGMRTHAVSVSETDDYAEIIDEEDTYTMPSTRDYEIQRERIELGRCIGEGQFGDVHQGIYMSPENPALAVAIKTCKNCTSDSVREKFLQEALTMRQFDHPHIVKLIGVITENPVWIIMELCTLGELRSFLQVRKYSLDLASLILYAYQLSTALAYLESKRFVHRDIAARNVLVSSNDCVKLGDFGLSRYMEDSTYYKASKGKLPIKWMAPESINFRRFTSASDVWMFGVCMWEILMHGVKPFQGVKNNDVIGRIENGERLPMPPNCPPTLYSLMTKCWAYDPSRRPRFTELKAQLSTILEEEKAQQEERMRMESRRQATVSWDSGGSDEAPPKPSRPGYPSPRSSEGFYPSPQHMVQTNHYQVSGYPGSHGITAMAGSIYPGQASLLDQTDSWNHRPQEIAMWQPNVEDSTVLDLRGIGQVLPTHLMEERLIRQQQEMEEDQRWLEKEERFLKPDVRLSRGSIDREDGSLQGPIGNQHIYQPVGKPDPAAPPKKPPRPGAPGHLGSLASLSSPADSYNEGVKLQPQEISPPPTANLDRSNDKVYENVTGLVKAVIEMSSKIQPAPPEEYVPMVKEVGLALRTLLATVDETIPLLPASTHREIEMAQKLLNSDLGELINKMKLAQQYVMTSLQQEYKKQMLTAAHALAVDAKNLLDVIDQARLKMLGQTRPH
Assay: FAK autophosphorylation inhibition, time resolved fluorescence (HTRF) assay
Assay type: biochemical
Details: 10 μM (values without asterisk); read-out: FAK % inhib at 10 μM
Observable: inhibition at 10 µM (%)
Give the value, in units of %, as a plain number.

1) O=S(=O)(Nc1ccc2[nH]nc(-c3cc4ccccc4[nH]3)c2c1)c1cccc(F)c1 [Example 85]    95
2) O=[N+]([O-])c1ccccc1S(=O)(=O)Nc1ccc2[nH]nc(-c3ccccc3)c2c1 [Example 113]    73
3) CS(=O)(=O)c1ccccc1S(=O)(=O)Nc1ccc2[nH]nc(-c3ccoc3)c2c1 [Example 52]    93

So what's the measured inhibition at 10 µM for this one? CC(C)(C)c1ccc(S(=O)(=O)Nc2ccc3[nH]nc(-c4ccccc4)c3c2)cc1 [Example 121]
5
